These entries and their values trace back to the supplement of paper PMC10065799.

For each entry below, report its SH2 binding enrichment value.
# assayed_target: SHP2-C SH2;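 further: peptide library displayed on the E. coli surface as eCPX fusions, selected cells deep-sequenced, score is each peptide's frequency after selection divided by its frequency in the input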
# assay_protocol: SH2 binding enrichment of the phosphorylated peptide, bacterial display (enrichment ratio); higher = better substrate or ligand; peptides without Tyr show the background

Any idea what SH2 binding enrichment was measured for IGEGTYRQVYK [CDK13_Y716_G717R] ?
0.89

Which SH2 binding enrichment is reported for this sequence? HLDRSYSFSFS [PEAR1_Y890_R885H_YF]
0.448

I am curious: what SH2 binding enrichment value has been reported for VIKDKYPQARY [APTX_Y209_K211Q] ?
0.66

Entry IIEDPYYGNDS [ACP1_Y132] has what SH2 binding enrichment?
0.492

GET /values?readout=SH2 binding enrichment&item= TYGVVYKARNK [CDK2_Y19]
0.253

Given the entry RRIYSYRGHLW [VHL_Y112_H110Y] , report its measured SH2 binding enrichment.
0.465

May I ask what SH2 binding enrichment has been recorded for GQKTLYSFFSP [UNG_Y8] ?
1.6

Query (sequence): DLLNSYIENEG [HSPA4L_Y600] ; field requested: SH2 binding enrichment
0.656

If you can, please state the reported SH2 binding enrichment value of KDLPNYNWNSF [KISS1_Y112] .
0.441

Given the sequence PQGVRYIFTID [DCX_Y103_YF] , what is its reported SH2 binding enrichment?
1.09

Quick one: SH2 binding enrichment for LHSEAYLKFNE [PBRM1_Y1610_I1614N_YF] ?
1

For the sequence FAELVYTSFWH [ASS1_Y322_G324S] , what SH2 binding enrichment is on record?
0.612

Could you share which SH2 binding enrichment value was measured for AFRRGYFDEEM [PLEC_Y2971_YF] ?
0.334

Reported SH2 binding enrichment for DENWFYTRAAF [RPS19_Y54_S59F] : what is it?
0.96

---

# System: c-Abl (mouse);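 further: 11-residue human phosphosite peptides and single-mutation variants displayed on the E. coli surface, counted by deep sequencing, each peptide's frequency after selection divided by its frequency in the unselected input library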;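 further: frequency after pTyr selection over input frequency; kinase dosed for 20-30% of maximal phosphorylation in three min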
# assay_protocol: phosphorylation enrichment, bacterial display (enrichment ratio); higher = better substrate or ligand; peptides without Tyr show the background
Assignment: determine reported phosphorylation enrichment for the given sequences.
Lab note: record the figure alone, no unit after it.

Look up phosphorylation enrichment: QLPRGYISILV [BAG3_Y205_P209L]
0.806

Which phosphorylation enrichment reading was recorded for the sequence YHLLPYTVRAM [PARS2_Y93] ?
24.6

Give the measured phosphorylation enrichment of CTTIHYNFMCI [TP53_Y234_N239I_YF] .
0.809

Consider the sequence shown here: VGEGPYLISDL [ABCC12_Y7] What is its recorded phosphorylation enrichment?
0.768

I would be grateful if you could share the reported phosphorylation enrichment for LTERSYSFVTT [ACTA1_Y200_G199S] .
0.889

Any idea what its phosphorylation enrichment is? The sequence is KAIMTYVSSFY [ACTN4_Y260]
0.755

Look at this sequence and give its reported phosphorylation enrichment. DFPIGYPSYLA [TBCK_Y153]
0.619

For the sequence shown here, HYVYYYSYLLK [PTEN_Y178_R173H] , give the reported phosphorylation enrichment.
2.31

So what's the measured phosphorylation enrichment for this one? NIRKKYYRAIL [CHD7_Y1217_Q1214R]
0.462

Consider the sequence shown here: KLLLKYSFHDV [RNF213_Y4141] What is its recorded phosphorylation enrichment?
0.878

Dear colleague, I am looking for the recorded phosphorylation enrichment of the following sequence: LFNQDYPIHSV [GATM_Y227_YF]
0.984

phosphorylation enrichment for KMLEKYKERLN [TLK2_Y259] ?
1.27

Request the reported phosphorylation enrichment associated with ADLVQYFMEHH [PTPN11_Y80_E76D_YF]
0.8

# get_value(readout='phosphorylation enrichment', item= ADPQEYIPLPA [JAKtide_2014] )
0.628

Report phosphorylation enrichment for FEPWVYSLSYE [PRKDC_Y647_F649L] please.
0.707

May I ask what phosphorylation enrichment has been recorded for CSEEMYCLMLQ [RET_Y981_R982C] ?
1.25

# lookup: phosphorylation enrichment of LKFAIYFEARE [LAMA2_Y1258_YF]
1.06

Query: phosphorylation enrichment; subject: IGRWVYPLTPE [EIF2B5_Y319_R315G]
0.717

# get_value(readout='phosphorylation enrichment', item= YPLELYERVRM [PRKCG_Y312] )
0.632

Which phosphorylation enrichment is listed for KKGIVYVFNGR [ITGAV_Y404_I405V] ?
0.443

Any idea what its phosphorylation enrichment is? The sequence is LNPLIYTLKNA [OR4C46_Y285]
0.474

Which phosphorylation enrichment is listed for ISGGGYRACPA [FGB_Y71_R74C] ?
0.58

I'd like to know its phosphorylation enrichment. The sequence in question is VNRSGYTLIRK [ATP6V0A2_Y688]
0.568

Look up phosphorylation enrichment for this sequence: LSSVSYVGCSL [ADGRD1_Y571_I569V]
1.35

Request the reported phosphorylation enrichment associated with RRETPYGGGGG [FUS_Y526_R524T]
0.487

Which phosphorylation enrichment is listed for FLAVGYHKPYI [IDS_Y225_H229Y] ?
1.16

For KSIQLYDTPYE [SHB_Y297_G293S] , what is its reported phosphorylation enrichment?
1.03

Would you mind telling me what phosphorylation enrichment value was observed for DVFLKHLNFAT [PDE6B_Y212_Y212H] ?
0.552

Returns the measured phosphorylation enrichment for the input sequence. Input: KNSFKYFMSDD [ATRX_Y203_C200S_YF]
0.628
